Record form. Attribute: Kd. Fill in for each entry.
Biological target: T1, cynomolgus VISTA extracellular domain (cynomolgus, UniProt A0A7N9IB00 33-194)
T1 construct: extracellular domain; also called cyno VISTA ECD; SB0361 (cyno (cynomolgus))
T1 sequence: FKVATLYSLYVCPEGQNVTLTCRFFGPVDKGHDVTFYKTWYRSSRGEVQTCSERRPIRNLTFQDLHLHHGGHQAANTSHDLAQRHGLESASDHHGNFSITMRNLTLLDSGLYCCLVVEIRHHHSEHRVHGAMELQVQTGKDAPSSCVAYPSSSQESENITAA
Experiment: SPR ProteOn
One number for each entry, in pM.

The following binders have reported results that may help.
binder	obs-value
VSTB95 (antibody, human IgG1, kappa, V domains shown, also called S16; INX Code 16) VH: EVQLVESGGGLVQPGGSLRLSCAASGFTFRNYGMSWVRQAPGKGLEWVASIISGGSYTYYPDSVKGRFTISRDNAKNSLYLQMNSLRAEDTAVYYCARIYDHDGDYYAMDYWGQGTTVTVSS VL: DIVMTQSPLSLPVTPGEPASISCRSSQSIVHSNGNTYLEWYLQKPGQSPQLLIYKVSNRFSGVPDRFSGSGSGTDFTLKISRVEAEDVGVYYCFQGSHVPWTFGQGTKLEIKR	192
VSTB60 (antibody, human IgG1, kappa, V domains shown, also called S47; INX Code 47) VH: QVQLVQSGSELKKPGASVKVSCKASGYTFTNYGMTWVRQAPGQGLEWMGWINTYTGESTYADDFKGRFVFSLDTSVSTAYLQICSLKAEDTAVYYCARDYYGIYVSAYWGQGTLVTVSS VL: DIVMTQTPLSLSVTPGQPASISCRASESVDNYANSFMHWYLQKPGQSPQLLIYRASNLESGVPDRFSGSGSGTDFTLKISRVEAEDVGVYYCQQSHEDPYTFGQGTKLEIKR	252
VSTB50 (antibody, human IgG1, kappa, V domains shown, also called S41; INX Code 41) VH: QVQLVQSGSELKKPGASVKVSCKASGYTFTNYGLNWVRQAPGQGLEWMGWINPYTGEPTYADDFKGRFVFSLDTSVSTAYLQICSLKAEDTAVYYCAREGYGNYIFPYWGQGTLVTVSS VL: DIVMTQTPLSLSVTPGQPASISCRASESVDTYANSLMHWYLQKPGQPPQLLIYRASNLESGVPDRFSGSGSGTDFTLKISRVEAEDVGVYYCQQTNEDPRTFGQGTKLEIKR	310

# input for lookup
Notebook: VSTB53 (antibody, human IgG1, kappa, V domains shown, also called S43; INX Code 43) VH: QVQLVQSGAEVKKPGASVKVSCKASGYTFTHYTIHWVRQAPGQGLEWMGYIIPSSGYSEYNQKFKDRVTMTRDTSTSTVYMELSSLRSEDTAVYYCARGAYDDYYDYYAMDYWGQGTLVTVSS VL: DIVMTQSPLSLPVTPGEPASISCRSSQTIVHSNGNTYLEWYLQKPGQSPQLLIYKVSNRFSGVPDRFSGSGSGTDFTLKISRVEAEDVGVYYCFQASHVPWTFGQGTKLEIKR , Kd read as 52.8
